The reader will find reported response vs control in vivo at 0.5 mg/kg values listed item by item below.
# protocolNotes: Antihypoxic action: survival time of mice in a decompressed desiccator
# Format: in vivo, Male mice (ICR/Jcl strain)
# appliedConditions: Mus musculus, ip, read-out: survival time of drug-treated group (mean survival time of control group = 100)
Counter-ions that a name gives are not always drawn.
Please give a number only; it is taken to be in %.

Req: Value lookup for response vs control in vivo at 0.5 mg/kg; key = OC(c1ccc(N2CCN(Cc3ccccc3)CC2)cc1)C1CCNCC1 (stereo not drawn)
Resp: 152

Req: What measured response vs control in vivo at 0.5 mg/kg goes with OC(c1ccncc1)c1ccc(N2CCCCC2)cc1 (stereo not drawn) [Example 12, dihydrochloride] ?
Resp: 152

Req: Find the recorded response vs control in vivo at 0.5 mg/kg belonging to `O=C(c1ccc(N2CCN(Cc3ccccc3)CC2)cc1)C1CCNCC1` and report it.
Resp: 148

* * *

Let's look at some molecules and their measured pIC50.
# experimentalTarget: cholinesterase (Rattus norvegicus, UniProt P37136)
# Construct: the S1 fraction of the cerebral cortex homogenate from male Wistar rats was used as cholinesterase source; from tissue; host or cells: cerebral cortex homogenate, S1 fraction, male Wistar rats
# Sequence (P37136 32-614): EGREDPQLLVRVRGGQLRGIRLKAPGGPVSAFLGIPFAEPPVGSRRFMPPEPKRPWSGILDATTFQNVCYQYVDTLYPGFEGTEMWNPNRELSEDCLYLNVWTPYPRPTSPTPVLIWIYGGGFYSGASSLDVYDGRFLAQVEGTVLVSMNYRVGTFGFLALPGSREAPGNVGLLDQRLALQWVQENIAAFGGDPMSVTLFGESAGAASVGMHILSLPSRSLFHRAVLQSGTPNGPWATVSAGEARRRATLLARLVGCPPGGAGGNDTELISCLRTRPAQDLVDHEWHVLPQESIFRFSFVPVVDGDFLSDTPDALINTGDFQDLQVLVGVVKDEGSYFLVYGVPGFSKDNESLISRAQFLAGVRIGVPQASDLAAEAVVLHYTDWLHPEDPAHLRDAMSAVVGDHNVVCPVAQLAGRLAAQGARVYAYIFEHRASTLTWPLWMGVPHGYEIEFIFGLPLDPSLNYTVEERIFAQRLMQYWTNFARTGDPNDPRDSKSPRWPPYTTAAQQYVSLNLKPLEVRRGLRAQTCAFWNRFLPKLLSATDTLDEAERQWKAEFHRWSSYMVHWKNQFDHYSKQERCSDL
# protocolNotes: Anti-cholinesterase action, (acetyl-[^3 H])-acetylcholine as substrate, S1 fraction of cerebral cortex homogenate
# Assay type: biochemical, male Wistar rats
# appliedConditions: 30 minutes incubation, read-out: Anticholinesterase activity IC50
Lab note: report pIC50 as minus log10 of the concentration in molar units, number only.

O=C(CCC1CCN(Cc2ccccc2)CC1)c1ccc(N2CCCC2)cc1 [Example 60-11] | 7.49

Req: Would you mind telling me what pIC50 value was observed for CN(C)c1ccc(C(=O)CCC2CCN(Cc3ccccc3)CC2)cc1 [Example 60-13] ?
Resp: 7.32

Req: Any idea what pIC50 was measured for CC(=O)N1CCN(c2ccc(C(=O)CCC3CCN(Cc4ccccc4)CC3)cc2)CC1 [Example 60-19] ?
Resp: 8.54

Req: Could you share which pIC50 value was measured for O=C(CCC1CCN(Cc2ccccc2)CC1)c1ccc(N2CCN(C(c3ccccc3)c3ccccc3)CC2)cc1 [Example 60-21] ?
Resp: 6.15

Req: Can you look up the measured pIC50 of O=C(CCC1CCN(Cc2ccccc2)CC1)c1ccc(-n2ccnc2)cc1 [Example 60-6] for me?
Resp: 7.70

Req: Record request: pIC50 value, item O=C(CCC1CCN(Cc2ccccc2)CC1)c1ccc(N2CCCCCC2)cc1 [Example 60-2]
Resp: 6.60

* * *

IC50 values, listed per item
# experimentalTarget: cholinesterase (Rattus norvegicus, UniProt P37136)
# Construct: the S1 fraction of the cerebral cortex homogenate from male Wistar rats was used as cholinesterase source; from tissue; host or cells: cerebral cortex homogenate, S1 fraction, male Wistar rats
# protocolNotes: Anti-cholinesterase action, (acetyl-[^3 H])-acetylcholine as substrate, S1 fraction of cerebral cortex homogenate
# Format: biochemical, male Wistar rats
# appliedConditions: 30 minutes incubation, read-out: Anticholinesterase activity IC50
Counter-ions that a name gives are not always drawn.
Report the value in nM with no unit label.

Here's what some known entries look like.
O=C(CCCC1CCN(Cc2ccccc2)CC1)c1ccc(N2CCCC2)cc1 [Example 69, fumarate] | 220
CN1CCN(c2ccc(C(=O)CCC3CCN(Cc4ccccc4)CC3)cc2)CC1 [Example 60-14] | 6.8
O=C(CCC1CCN(Cc2ccccc2)CC1)c1ccc(N2CCCCC2)cc1 [Example 60-15] | 61

Turning to the following compound.
Req: Can you share its IC50? I mean this compound: CN(C)c1ccc(C(=O)CCC2CCN(Cc3ccccc3)CC2)cc1 [Example 60-3]
Resp: 53
